tested on: BT-549; test: NCI tumour cell line growth inhibition, 48 h
Where a name gives a salt, the structure may show the parent alone. The source made the active and inactive calls. Cut-off read from the data, not from the text of the source: active = GI50 up to about 1.1 µM and inactive = higher. Starred links: 1 amine or outer side, 2 acyl side, 3 side chain; linkers in the order of their positions; H or OH if unused. Positions of bridges follow the written chain, without caps; N, C: chain ends. Non-standard residues stand in square brackets, D forms with d. Residues, ends and D or L forms follow the SMILES beside them. ξ: configuration not given here. X37 = CC[C@H](C)[C@@H](N[*:1])[C@@H](O)CC(=O)O[C@H](C(=O)[C@H](C)C(=O)[*:2])C(C)C; NMeY = CN[C@@H](Cc1ccc(O)cc1)C(=O)O; dNMeL = CN[C@H](CC(C)C)C(=O)O; ξΔPro = O=C(O)C1C=CCN1
Returns: one label drawn from active, inactive

Status in this test for COC(=O)C1C(OC(=O)C(Cl)(c2ccccc2)c2ccccc2)CC2CCC1N2C (stereo not given) ?
inactive

Identify the outcome logged in this assay for the molecule shown: Cc1cn(C2CC(O)C(COC(N)=O)O2)c(=O)[nH]c1=O (stereo not given)
inactive

What was the test verdict on Cc1cn(C2CCC(CO)(CF)O2)c(=O)[nH]c1=O (stereo not given) ?
inactive

Which outcome was entered for the molecule COC(=O)c1cc2c3c(c(C(C)=O)c(OC)c2[nH]1)NCC3 in this test?
inactive

GET /call?item= CC(=O)OC1=NN=C2COC(c3ccccc3OC(C)=O)=NN2C1 returns the recorded outcome of this test.
inactive

How did this test come out for CCCSc1ccc2[nH]c(N3C(=O)/C(=C/c4ccc(O)c(OC)c4)N=C3c3ccccc3)cc2c1 ?
inactive

Give the logged outcome of this assay for the following molecule: Cc1nn(-c2ccccc2)c2c1C(c1ccc(Cl)cc1)NC(=S)N2 (stereo not given)
inactive

Any idea what this test logged for NC(=O)C(=CN1CC(=O)NC1=S)C(N)=O ?
inactive

Record lookup: outcome of this test for CC(C)/C(Cl)=N\OC(=O)NNc1ccccc1 ?
inactive

Given C[N+](C)([O-])CCCNc1ccnc2cccc([N+](=O)[O-])c12 , state the outcome it received in this test.
inactive

Please let me know the test result on file for N=c1ccn2c(n1)O[C@H]1[C@H](O)[C@@H](CO)O[C@H]12 [ANCITABINE HYDROCHLORIDE] .
inactive

Outcome? COc1ccc(CNc2nc3cc(C(F)(F)F)ccc3nc2C(=O)O)cc1OC
inactive

Hi team, can someone confirm the assay call for C/C(=C1/N=C(c2ccccc2)OC1=O)c1cccs1 ?
inactive

For this molecule, state the assay outcome: C(/c1ccco1)=c1/nc(-c2ccccc2)n2c1nc1ccccc12
inactive

Dear colleague, could you share the recorded outcome for O=C(O)CN1CCN(CC(=O)O)CCN(CC(=O)O)CCN(CC(=O)O)CC1 when you have a moment?
inactive

Test call, this molecule: OC1(c2ccccc2)CC2CCC(C1)N2CCCC(O)(c1ccccc1)c1ccccc1 (stereo not given)
inactive

Which result was noted for this molecule in the test: Cc1c(CCOC=O)c(=O)[nH]c2nncn12
inactive

Given CCOC(=O)Oc1ccc2c(c1)c(=O)c1c(NCCCN(CC)CC)ccc3nnn2c31 , state the outcome it received in this test.
inactive

What was the test verdict on C1=CC2C(C3CN(c4ccccc4)N=C13)C1C3C4C=CC21C=CC43 (stereo not given) ?
inactive

Any idea what this test logged for C/C(=N/NC(=S)N1CCCCC1)c1cccc(/C(C)=N\NC(=S)N2CCCCC2)n1 ?
inactive

Short answer needed: outcome of this test for CC[C@H](C)[C@H]1NC(=O)[C@@H](NC(=O)[C@@H](CC(C)C)N(C)C(=O)C2C=CCN2)[C@@H](C)OC(=O)[C@H](Cc2ccc(OC)cc2)N(C)C(=O)[C@@H]2CCCN2C(=O)[C@H](CC(C)C)NC(=O)[C@@H](C)C(=O)[C@H](C(C)C)OC(=O)C[C@@H]1O (stereo not given in full) (H-[ξΔPro][dNMeL]T[X37]LP[NMeY](Me); ester 3-C) ?
active

Per the assay record, what outcome was assigned to Cc1c2oc(=O)c(C#N)cc2c2ccccn12 ?
inactive

Can you look up the reported call for COc1ccc(N2C(=O)CC(=O)N(C(=O)CCCCCCCCC(=O)N3C(=O)CC(=O)N(c4ccc(OC)cc4)C3=S)C2=S)cc1 for me?
inactive

For CC(C)(C)C(=O)CC1=Nc2ccccc2SC1(O)CC(=O)C(C)(C)C (stereo not given) , what call appears in the results of this test?
inactive

Called result for CCOC(=O)CCC(NC(=O)c1ccc(OCc2nc3cc(C(F)(F)F)ccc3nc2-c2ccccc2)cc1)C(=O)OCC (stereo not given)
inactive

Assay outcome for S=C1CC(c2ccc(Cl)cc2)Sc2ccccc2N1 (stereo not given) : what was it?
inactive

Please share the test call associated with N=C(N)NS(=O)(=O)c1ccc(NC(=O)c2cccc3c(NNc4ccc(C(=O)O)cc4)c4ccccc4nc23)cc1 .
inactive

Query: recorded result category for CC(C)(C)OC(=O)N(CCNS(=O)(=O)c1cccc2cnccc12)CCC(=O)ON1C(=O)CCC1=O in this test
inactive

Just curious, what result did CC(C)(C)CNC(=O)NCn1cc(-c2ccccc2)nn1 get here?
inactive

State the result this test recorded for CCCc1nc2c(n1CC)C(=O)c1ccccc1C2=O .
inactive

Hello, I am checking results. What call was entered for CN1C2=C(CC3=C1CC(C)(C)CC3=O)C(=O)CC(C)(C)C2 ?
inactive

Fill in: this test's call for CCn1ncc(Oc2c(Cl)cc(N)cc2Cl)c(Cl)c1=O is ___
inactive

// return assay outcome for O=C(Nc1ccc2nc(O)n[n+]([O-])c2c1)C(F)(F)F
inactive

Write down the call the test reported for this molecule. Item: C=C1CC2C[C@H](OS(=O)(=O)c3ccc(C)cc3)C(C1)N2C (stereo not given in full)
inactive

Hello, I am checking results. What call was entered for CC(C)[C@](O)(C(=O)OCC1=CC[N+]2([O-])CC[C@@H](O)[C@@H]12)[C@H](C)O (stereo not given in full) [INDICINE N-OXIDE] ?
inactive

Status in this test for Cc1nc2[nH]ccn2c(=O)c1CCO ?
inactive

Test call, this molecule: Nc1cccc2nsnc12
inactive

Could you please tell me the result logged for CCc1ccc(Nc2cc(=O)[nH]c(SCc3ccccc3)n2)cc1 in this assay?
inactive

Would you mind telling me which call this test gave COc1cc(C2SCC(=O)N2Cc2ccccc2)cc(OC)c1OC (stereo not given) ?
inactive

Record lookup: outcome of this test for COc1cc(C2c3cc4c(cc3OC(N3CCOCC3)C2C)OCO4)ccc1O (stereo not given) ?
inactive
